B1: TRIM43 (parent)
chain: RAQMIRNEYRKLHPVLHKEEKQHL

Variants of: B1
EXPERIMENT_SUMMARY: protein stability index of a GFP-peptide fusion (GPS, HEK-293T) (PSI 1-6); higher = more stable;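 also: lentivirally expressed fusions sorted by FACS into six bins by GFP to DsRed ratio, PSI derived from sequencing read proportions per bin multiplied by bin number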
REPORTED_CONDITIONS: c terminus: a fixed tail appended
The label depends only on protein stability index: Met if it is at least 3, Not met if it is smaller.

These recorded examples may help you get a feel for the data.
1) L16Y | Not met
2) Q3P | Met
3) N7K | Met
4) L16K | Met
5) E8T | Not met
6) Q3S | Met
7) R1I | Not met
8) H13W | Not met

Hi team, for H13T , is the recorded protein stability index at or above 3?
Met

Is protein stability index at least 3? Consider R6E
Met

Hello, I need to know if E20I has measured protein stability index not below 3. Thanks!
Not met

Given V15L , state whether its protein stability index is at least 3.
Not met

Check this variant for protein stability index at or above 3: H13S
Met

Confirm if protein stability index reported for the variant E19H is 3 or above.
Not met

Could you please find out whether H23T has protein stability index that meets 3 or exceeds it?
Met

Form field: protein stability index at least 3? Entry: Q22C
Not met

Is protein stability index at least 3? Consider I5G
Met

Is protein stability index for L12E at or above 3?
Met

For this variant, is measured protein stability index 3 or higher? M4W
Not met

Is it the case that V15P has protein stability index reaching or exceeding 3?
Met

Reported protein stability index reaches at least 3 for H17M ?
Not met

Decide: is the reported value of protein stability index for N7I equal to or greater than 3?
Not met
